normalised viability values for the molecules below.
Tested on: MDA-MB-468
Assay: normalised viability (% of control), CellTiter-Blue; higher = more viable cells (about 100 = DMSO control)
Conditions: 100 nM; incubation time: 72 h
Give the value in % but do not write % after it.

# example entries with known answers
Cc1ccc(-c2cc(C(F)(F)F)nn2-c2ccc(S(N)(=O)=O)cc2)cc1; 111
Oc1ncc(N(CCCl)CCCl)c(O)n1; 108
C1CN1c1nc(N2CC2)nc(N2CC2)n1; 101
COc1cc2nccc(Oc3ccc(NC(=O)Nc4cc(C)on4)c(Cl)c3)c2cc1OC; 96.8
NCCCNCCSP(=O)(O)O; 102

Prompt: Determine its reported normalised viability: CC[C@H](Nc1ncnc2[nH]cnc12)c1nc2cccc(F)c2c(=O)n1-c1ccccc1
Completion: 115

Prompt: Determine its reported normalised viability: C=CC(=O)Nc1cc2c(Nc3ccc(F)c(Cl)c3)ncnc2cc1OCCCN1CCOCC1
Completion: 67.1

Prompt: Determine its reported normalised viability: CCc1cncnc1N1CCN(Cc2nc3ccc(C(F)(F)F)cc3[nH]2)CC1
Completion: 117

Prompt: Determine its reported normalised viability: CCCCC(=O)OCC(=O)[C@]1(O)Cc2c(O)c3c(c(O)c2[C@@H](O[C@H]2C[C@H](NC(=O)C(F)(F)F)[C@H](O)[C@H](C)O2)C1)C(=O)c1c(OC)cccc1C3=O
Completion: 92.1

====

System: MFM-223
Test: drug sensitivity score (DSS), CellTiter-Glo (DSS (AUC-based score)); higher = stronger drug effect (viability inhibition or cytotoxicity); extreme values may be limits of the assay
Settings: incubation time: 72 h
assay_endpoint: drug sensitivity score
Answer with a bare number; do not write a unit.

# example entries with known answers
O=C(O)C(=O)O.[NH-][C@@H]1CCCC[C@H]1[NH-].[Pt+2]; 0
CNC(=O)c1cc(Oc2ccc(NC(=O)Nc3cc(C(C)(C)C)nn3-c3ccc4ncccc4c3)c(F)c2)ccn1; 6.56
CC[C@H](Nc1ncnc2[nH]cnc12)c1nc2cccc(F)c2c(=O)n1-c1ccccc1; 0
C[C@H]1C[C@@H]2[C@H]([C@@H](O)C[C@@]3(C)[C@H]2CC[C@]3(O)C(=O)CO)[C@@]2(C)C=CC(=O)C=C12; 0
CCc1cncnc1N1CCN(Cc2nc3ccc(C(F)(F)F)cc3[nH]2)CC1; 0
Nc1nc(F)nc2c1ncn2[C@@H]1O[C@H](CO)[C@@H](O)[C@@H]1O; 0
O=C(O)CCCCC(CCSCc1ccccc1)SCc1ccccc1 (stereo not given); 0
CC[C@H](C)C(=O)O[C@H]1C[C@H](O)C=C2C=C[C@H](C)[C@H](CC[C@@H](O)C[C@@H](O)CC(=O)O)[C@H]21; 2.84

Prompt: Determine its reported drug sensitivity score: CCCCC(=O)OCC(=O)[C@]1(O)Cc2c(O)c3c(c(O)c2[C@@H](O[C@H]2C[C@H](NC(=O)C(F)(F)F)[C@H](O)[C@H](C)O2)C1)C(=O)c1c(OC)cccc1C3=O
Completion: 1.28

Prompt: Determine its reported drug sensitivity score: COc1cc2c(NC3CCN(C(C)C)CC3)nc(C3CCCCC3)nc2cc1OCCCN1CCCC1
Completion: 6.13

====

Tested on: MDA-MB-436
Test: normalised viability (% of control), CellTiter-Blue; higher = more viable cells (100 = DMSO, 0 = benzethonium chloride kill control)
Conditions: 1 nM; incubation time: 72 h
assay_endpoint: normalised viability

Prompt: Determine its reported normalised viability: COc1cc2nccc(Oc3ccc(NC(=O)Nc4cc(C)on4)c(Cl)c3)c2cc1OC [Tivozanib]
Completion: 102%

Prompt: Determine its reported normalised viability: CCCCC(=O)OCC(=O)[C@]1(O)Cc2c(O)c3c(c(O)c2[C@@H](O[C@H]2C[C@H](NC(=O)C(F)(F)F)[C@H](O)[C@H](C)O2)C1)C(=O)c1c(OC)cccc1C3=O [Valrubicin]
Completion: 106%

Prompt: Determine its reported normalised viability: CCc1cncnc1N1CCN(Cc2nc3ccc(C(F)(F)F)cc3[nH]2)CC1
Completion: 106%

Prompt: Determine its reported normalised viability: CCN(CC)CCCC(C)Nc1c2ccc(Cl)cc2nc2ccc(OC)cc12 (stereo unspecified) [Mepacrine]
Completion: 101%

Prompt: Determine its reported normalised viability: C[C@H]1C[C@@H]2[C@H]([C@@H](O)C[C@@]3(C)[C@H]2CC[C@]3(O)C(=O)CO)[C@@]2(C)C=CC(=O)C=C12 [Methylprednisolone]
Completion: 108%

Prompt: Determine its reported normalised viability: O=C(O)C1(C(=O)O)CCC1.[NH2-].[NH2-].[Pt+2] [Carboplatin]
Completion: 102%
